target: UniProt P41595; type: cell membranes, CHO-K1, Membrane; conditions: read-out: Ki
Sequence (P41595 whole entry): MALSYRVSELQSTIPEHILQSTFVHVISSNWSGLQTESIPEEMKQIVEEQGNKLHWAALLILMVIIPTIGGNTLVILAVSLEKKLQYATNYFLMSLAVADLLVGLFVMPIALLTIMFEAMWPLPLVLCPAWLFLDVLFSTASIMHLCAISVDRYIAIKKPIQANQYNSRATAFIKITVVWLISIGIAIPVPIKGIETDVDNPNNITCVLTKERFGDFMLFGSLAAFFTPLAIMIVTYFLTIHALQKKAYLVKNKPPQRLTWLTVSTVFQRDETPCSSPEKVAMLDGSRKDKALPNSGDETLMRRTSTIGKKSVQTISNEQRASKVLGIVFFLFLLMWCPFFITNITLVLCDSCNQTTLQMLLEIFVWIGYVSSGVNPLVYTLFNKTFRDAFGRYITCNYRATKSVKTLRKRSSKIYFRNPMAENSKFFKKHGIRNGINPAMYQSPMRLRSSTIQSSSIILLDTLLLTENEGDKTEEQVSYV
pKi: −log10 of the molar value.
The entries below are paired with their reported pKi.

compound: Cc1c(C)c2c(c(C)c1O)CCC(C)(CN1CCN(c3cc(N4CCCC4)nc(N4CCCC4)n3)CC1)O2 (stereo not drawn)
pKi: 6.48
--
compound: COc1cc2nc(N3CCN(C(=O)c4ccco4)CC3)nc(N)c2cc1OC
pKi: 5.58
--
compound: O=C(c1ccccc1C(F)(F)F)N1CCC(Cc2ccccc2)CC1
pKi: 6.01
--
compound: Cc1cccc(C)c1OCC(C)N (stereo not drawn)
pKi: 6.14
--
compound: COC(=O)Nc1nc2ccc(C(=O)c3cccs3)cc2[nH]1
pKi: 4.89
--
compound: CC(C)c1cccc(C(C)C)c1O
pKi: 5.46
--
compound: CN[C@H]1CC[C@@H](c2ccc(Cl)c(Cl)c2)c2ccccc21
pKi: 5.67
--
compound: COc1ccc2cc3[n+](cc2c1OC)CCc1cc2c(cc1-3)OCO2.[Cl-] [BERBERINE CHLORIDE]
pKi: 5.66
--
compound: C[C@@H](CO)NC(=O)[C@@H]1C=C2c3cccc4[nH]cc(c34)C[C@H]2N(C)C1
pKi: 8.58
--
compound: CO[C@@H]1[C@@H](OC)[C@H](C)[C@@](O)(CC(=O)O)O[C@H]1[C@H](C)[C@H]1O[C@@]2(CC[C@@](C)([C@H]3CC[C@@](C)([C@@H]4O[C@@H]([C@H]5O[C@](C)(O)[C@H](C)C[C@@H]5C)C[C@@H]4O[C@@H]4C[C@H](OC)[C@@H](OC)[C@H](C)O4)O3)O2)C[C@H](O)[C@H]1C
pKi: 7.68
--
compound: O=c1cc(N2CCOCC2)oc2c(-c3ccccc3)cccc12
pKi: 4.63
--
compound: Cc1cc2c(OCC(CNC(C)(C)C)OC(=O)c3ccccc3)cccc2[nH]1 (stereo not drawn)
pKi: 6.01
--
compound: N=C(N)NC(=O)Cc1c(Cl)cccc1Cl
pKi: 5.87

====

molecular target: UniProtKB P0DMS8; assay type: cell membranes, CHO-K1, Membrane; settings: cho-k1
Sequence (P0DMS8 whole entry): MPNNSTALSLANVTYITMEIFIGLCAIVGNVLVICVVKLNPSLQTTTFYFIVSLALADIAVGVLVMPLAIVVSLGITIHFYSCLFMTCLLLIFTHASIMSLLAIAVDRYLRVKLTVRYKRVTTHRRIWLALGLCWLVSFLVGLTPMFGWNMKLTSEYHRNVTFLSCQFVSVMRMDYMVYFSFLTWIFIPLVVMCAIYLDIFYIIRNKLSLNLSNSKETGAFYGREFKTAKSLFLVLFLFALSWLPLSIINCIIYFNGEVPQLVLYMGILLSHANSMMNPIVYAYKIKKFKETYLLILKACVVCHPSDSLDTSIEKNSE

compound: CC(C)Cc1ccc([C@@H](C)C(=O)O)cc1 [(R)-IBUPROPHEN]
target desc: UniProtKB P0DMS8
IC50: Not Active
--
compound: O=C/C=C/c1ccccc1
target desc: UniProtKB P0DMS8
IC50: Not Active
--
compound: CS(=O)(=O)c1ccc([C@@H](O)[C@@H](CO)NC(=O)C(Cl)Cl)cc1
target desc: UniProtKB P0DMS8
IC50: Not Active
--
compound: Cc1ccc(NC(=O)c2ccc(CN3CCN(C)CC3)cc2)cc1Nc1nccc(-c2cccnc2)n1
target desc: UniProtKB P0DMS8
IC50: Not Active
--
compound: CC(C(=O)O)c1ccc2oc(-c3ccc(Cl)cc3)nc2c1 (stereo not given)
target desc: UniProtKB P0DMS8
IC50: Not Active
--
compound: COC(=O)CCc1ccc(OCC(O)CNC(C)C)cc1 (stereo not given)
target desc: UniProtKB P0DMS8
IC50: Not Active
--
compound: COc1ccc(C2C(=O)c3ccccc3C2=O)cc1
target desc: UniProtKB P0DMS8
IC50: Not Active
--
compound: COC(=O)Nc1nc2ccc(C(=O)c3cccs3)cc2[nH]1
target desc: UniProtKB P0DMS8
IC50: Not Active
--
compound: CCCOc1ccc(C(=O)OCCN(CC)CC)cc1N
target desc: UniProtKB P0DMS8
IC50: Not Active
--
compound: CC(C)NCC(O)c1ccc(O)c(O)c1 (stereo not given)
target desc: UniProtKB P0DMS8
IC50: Not Active

====

biological target: Melanocortin receptor 5 (Homo sapiens); format: cell membranes, HEK293, Membrane; conditions: read-out: Ki; also: in other assays of this panel Not Active means under 50% inhibition at 10 µM
Sequence (P33032 whole entry): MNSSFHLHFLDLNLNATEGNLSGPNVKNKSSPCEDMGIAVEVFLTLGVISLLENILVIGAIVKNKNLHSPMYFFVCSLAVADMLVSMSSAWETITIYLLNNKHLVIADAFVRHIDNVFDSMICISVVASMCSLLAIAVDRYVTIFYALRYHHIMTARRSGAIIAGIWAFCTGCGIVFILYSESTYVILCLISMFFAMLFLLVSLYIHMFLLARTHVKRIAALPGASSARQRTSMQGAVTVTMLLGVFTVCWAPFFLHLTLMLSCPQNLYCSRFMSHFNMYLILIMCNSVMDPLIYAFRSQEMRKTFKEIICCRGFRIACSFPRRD
The entries below are paired with their reported Ki.

compound: CC(=O)O[C@H]1C(=O)[C@@]2(C)[C@H]([C@H](OC(=O)c3ccccc3)[C@]3(O)C[C@H](OC(=O)[C@H](O)[C@@H](NC(=O)c4ccccc4)c4ccccc4)C(C)=C1C3(C)C)[C@]1(OC(C)=O)CO[C@@H]1C[C@@H]2O
Ki [µM]: 16.1

compound: C[C@@H]1CC[C@@]2(OC1)O[C@H]1[C@@H](O)[C@H]3[C@@H]4CC[C@H]5C[C@@H](O[C@@H]6O[C@H](CO)[C@H](O[C@@H]7O[C@H](CO)C(O)[C@H](O[C@@H]8OC[C@@H](O)[C@H](O)[C@H]8O)[C@H]7O[C@@H]7O[C@H](CO)[C@H](O)[C@H](O[C@@H]8O[C@H](CO)[C@@H](O)[C@H](O)[C@H]8O)[C@H]7O)[C@H](O)[C@H]6O)[C@H](O)C[C@]5(C)[C@H]4CC[C@]3(C)[C@H]1[C@@H]2C (some centres undefined)
Ki [µM]: 3.64

compound: CN[C@H]1CC[C@@H](c2ccc(Cl)c(Cl)c2)c2ccccc21
Ki [µM]: 4.31

compound: Clc1ccc(COC(Cn2ccnc2)c2ccc(Cl)cc2Cl)cc1 (centres undefined)
Ki [µM]: 37.1

====

target: Beta-2 adrenergic receptor (Homo sapiens, UniProt P07550); experiment: DRUGMATRIX: Adrenergic beta2 radioligand binding (ligand: [3H] CGP-12177); format: cell membranes, CHO, Membrane; settings: Not Active = under 50% inhibition at 10 µM; read-out: IC50
Sequence (P07550 whole entry): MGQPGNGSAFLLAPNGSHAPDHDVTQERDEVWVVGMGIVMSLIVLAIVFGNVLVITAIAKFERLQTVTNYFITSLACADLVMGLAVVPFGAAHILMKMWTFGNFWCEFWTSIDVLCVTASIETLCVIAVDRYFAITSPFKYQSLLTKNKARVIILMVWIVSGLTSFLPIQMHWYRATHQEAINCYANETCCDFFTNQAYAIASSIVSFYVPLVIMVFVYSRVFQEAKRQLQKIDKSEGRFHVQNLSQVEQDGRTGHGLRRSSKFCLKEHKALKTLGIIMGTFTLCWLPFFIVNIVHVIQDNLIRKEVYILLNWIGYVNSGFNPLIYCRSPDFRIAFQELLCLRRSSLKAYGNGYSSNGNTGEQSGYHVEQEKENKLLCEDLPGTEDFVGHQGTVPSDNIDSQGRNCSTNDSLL
pIC50: −log10 of the molar value.

compound: Cc1cc2c(OCC(CNC(C)(C)C)OC(=O)c3ccccc3)cccc2[nH]1 (stereo unspecified)
pIC50: 7.70

====

target: B2 bradykinin receptor (Homo sapiens); assay type: cell membranes, Membrane; conditions: chem-1; also: in other assays of this panel Not Active means under 50% inhibition at 10 µM
Sequence (P30411 whole entry): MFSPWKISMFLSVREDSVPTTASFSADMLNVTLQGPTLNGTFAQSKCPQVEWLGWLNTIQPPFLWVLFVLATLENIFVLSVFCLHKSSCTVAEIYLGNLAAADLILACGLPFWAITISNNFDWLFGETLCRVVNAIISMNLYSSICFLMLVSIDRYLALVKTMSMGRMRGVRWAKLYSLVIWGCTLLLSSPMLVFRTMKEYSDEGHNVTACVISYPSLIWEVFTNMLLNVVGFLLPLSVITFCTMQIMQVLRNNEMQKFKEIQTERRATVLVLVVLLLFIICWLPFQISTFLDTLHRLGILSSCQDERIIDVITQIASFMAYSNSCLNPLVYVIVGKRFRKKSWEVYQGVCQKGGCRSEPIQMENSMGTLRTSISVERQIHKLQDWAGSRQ
reported endpoint: IC50

compound: Brc1c(NC2=NCCN2)ccc2nccnc12 [BRIMONIDINE]
target desc: B2 bradykinin receptor (Homo sapiens); also: in other assays of this panel Not Active means under 50% inhibition at 10 µM
experimental result: Not Active
--
compound: CN(C)CC[C@@H](c1ccc(Cl)cc1)c1ccccn1 [DEXCHLORPHENIRAMINE]
target desc: B2 bradykinin receptor (Homo sapiens); also: in other assays of this panel Not Active means under 50% inhibition at 10 µM
experimental result: Not Active
--
compound: O=C(Oc1ccccc1C(=O)O)c1ccccc1O [SALSALATE]
target desc: B2 bradykinin receptor (Homo sapiens); also: in other assays of this panel Not Active means under 50% inhibition at 10 µM
experimental result: Not Active
--
compound: CNC1(c2ccccc2Cl)CCCCC1=O (stereo not given) [KETAMINE]
target desc: B2 bradykinin receptor (Homo sapiens); also: in other assays of this panel Not Active means under 50% inhibition at 10 µM
experimental result: Not Active
--
compound: O=C/C=C/c1ccccc1
target desc: B2 bradykinin receptor (Homo sapiens); also: in other assays of this panel Not Active means under 50% inhibition at 10 µM
experimental result: Not Active
--
compound: CCN(CC)CCOCCC1=CCC2CC1C2(C)C (stereo not given) [MYRTECAINE]
target desc: B2 bradykinin receptor (Homo sapiens); also: in other assays of this panel Not Active means under 50% inhibition at 10 µM
experimental result: Not Active
--
compound: NCCCC(O)(P(=O)(O)O)P(=O)(O)O [ALENDRONIC ACID]
target desc: B2 bradykinin receptor (Homo sapiens); also: in other assays of this panel Not Active means under 50% inhibition at 10 µM
experimental result: Not Active
--
compound: CCN(CC)CC(=O)Nc1c(C)cccc1C [LIDOCAINE]
target desc: B2 bradykinin receptor (Homo sapiens); also: in other assays of this panel Not Active means under 50% inhibition at 10 µM
experimental result: Not Active
--
compound: Cc1cccc(C)c1OCC(C)N (stereo not given) [MEXILETINE]
target desc: B2 bradykinin receptor (Homo sapiens); also: in other assays of this panel Not Active means under 50% inhibition at 10 µM
experimental result: Not Active
--
compound: O=c1cc(N2CCOCC2)oc2c(-c3ccccc3)cccc12 [LY-294002]
target desc: B2 bradykinin receptor (Homo sapiens); also: in other assays of this panel Not Active means under 50% inhibition at 10 µM
experimental result: Not Active
--
compound: OC(CCCN1CCCCC1)(c1ccccc1)c1ccccc1 [DIPHENIDOL]
target desc: B2 bradykinin receptor (Homo sapiens); also: in other assays of this panel Not Active means under 50% inhibition at 10 µM
experimental result: Not Active
--
compound: CS(=O)(=O)c1ccc([C@@H](O)[C@@H](CO)NC(=O)C(Cl)Cl)cc1 [THIAMPHENICOL]
target desc: B2 bradykinin receptor (Homo sapiens); also: in other assays of this panel Not Active means under 50% inhibition at 10 µM
experimental result: Not Active
--
compound: COc1c2occc2cc2ccc(=O)oc12 [METHOXSALEN]
target desc: B2 bradykinin receptor (Homo sapiens); also: in other assays of this panel Not Active means under 50% inhibition at 10 µM
experimental result: Not Active
--
compound: CCN(CC)CCNC(=O)c1cc(S(C)(=O)=O)ccc1OC [TIAPRIDE]
target desc: B2 bradykinin receptor (Homo sapiens); also: in other assays of this panel Not Active means under 50% inhibition at 10 µM
experimental result: Not Active
--
compound: CCN1CCC[C@H]1CNC(=O)c1cc(S(N)(=O)=O)ccc1OC [LEVOSULPIRIDE]
target desc: B2 bradykinin receptor (Homo sapiens); also: in other assays of this panel Not Active means under 50% inhibition at 10 µM
experimental result: Not Active
--
compound: O=C1O[C@H]([C@@H](O)CO)C(O)=C1O [ASCORBIC ACID]
target desc: B2 bradykinin receptor (Homo sapiens); also: in other assays of this panel Not Active means under 50% inhibition at 10 µM
experimental result: Not Active
--
compound: CC(=O)[C@H]1[C@H](C#N)C[C@H]2[C@@H]3CC=C4C[C@@H](O)CC[C@]4(C)[C@H]3CC[C@@]21C [PREGNENOLONE CARBONITRILE]
target desc: B2 bradykinin receptor (Homo sapiens); also: in other assays of this panel Not Active means under 50% inhibition at 10 µM
experimental result: Not Active
--
compound: CCCN(CCC)S(=O)(=O)c1ccc(C(=O)O)cc1 [PROBENECID]
target desc: B2 bradykinin receptor (Homo sapiens); also: in other assays of this panel Not Active means under 50% inhibition at 10 µM
experimental result: Not Active
--
compound: C#CC1(O)CC[C@H]2[C@@H]3CCC4=CC(=O)CC[C@@H]4[C@H]3CC[C@@]21CC (stereo not given in full) [NORGESTREL]
target desc: B2 bradykinin receptor (Homo sapiens); also: in other assays of this panel Not Active means under 50% inhibition at 10 µM
experimental result: Not Active
--
compound: COc1ccc2[nH]cc(CCNC(C)=O)c2c1 [MELATONIN]
target desc: B2 bradykinin receptor (Homo sapiens); also: in other assays of this panel Not Active means under 50% inhibition at 10 µM
experimental result: Not Active
